// data source = PubChem BioAssay AID457

PROTOCOL TEXT: enhancers of VCAM-1 display on endothelial cells, imaging, high-content imaging, pooled HUVEC, TNFa stimulus (AID 457)
CONDITIONS: TNFa-induced VCAM-1 immunofluorescence imaging
Hit rate of the full screen: of about 10,000 compounds, about 20 (0.2%) were called active. The list is a sample of the results.
ATTRIBUTE MEASURED: outcome

Study these solved cases before continuing.
>>> observed_result("Cc1c(NC(=O)C2CCCNC2=O)c(=O)n(-c2ccccc2)n1C (stereo not drawn)")
"inactive"
>>> observed_result("CCc1c(C(=O)Nc2cc(C)ccc2OC)[nH]c(C)c1C(C)=O")
"inactive"
>>> observed_result("Cc1csc(NC(=O)c2cccc(S(=O)(=O)N3CCCCC3)c2)n1")
"inactive"
>>> observed_result("CCOc1ccccc1Nc1nc2ccccc2[nH]1")
"inactive"
>>> observed_result("C=CCN1C(=O)C2(/C(=C(\\O)c3ccc4c(c3)OCCO4)C(=O)C(=O)N2CCCOC)c2ccccc21 (stereo not drawn)")
"inactive"
>>> observed_result("COCCNC(=O)CN1CCN(C(c2ccccc2)c2ccccc2)CC1")
"inactive"

Prompt: Would you kindly share the measured outcome for COC(=O)C(CCCCNC(=O)OCc1ccccc1)NC(=O)CN (stereo not drawn) ?
Response: inactive

Prompt: Next up: COc1ccccc1-c1nnc(SCC(=O)NC2CCCCC2)o1
Response: inactive

Prompt: Next up: Cn1c(/C=N/n2cnnc2)nc2ccccc21
Response: inactive

Prompt: Next up: Clc1ccc(-c2nnc3sc(-c4ccc(Br)o4)nn23)cc1
Response: inactive

* * *

PROTOCOL TEXT: enhancers of VCAM-1 display on endothelial cells, imaging, high-content imaging, pooled HUVEC, TNFa stimulus (AID 457)
CONDITIONS: TNFa-induced VCAM-1 immunofluorescence imaging
The campaign covered roughly 10,000 compounds. About 20 (0.2%) were called active. Not all results are given here.
ATTRIBUTE MEASURED: outcome

Study these solved cases before continuing.
>>> observed_result("CCOCCn1cnc2sc(C(=O)Nc3nc(C)c(C(=O)OCC)s3)c(C)c2c1=O")
"inactive"
>>> observed_result("O=S(=O)(c1cccc(S(=O)(=O)N2CCC(N3CCCCC3)CC2)c1)N1CCOCC1")
"inactive"
>>> observed_result("Cc1sc2nc(CN3CCN(S(=O)(=O)c4cccc5nonc45)CC3)[nH]c(=O)c2c1C")
"inactive"
>>> observed_result("O=C(Cn1ccc2ccccc2c1=O)Nc1ccc2c(c1)OCO2")
"inactive"
>>> observed_result("Cc1cc2ccccc2c(=O)n1CC(=O)N(C)c1ccc(F)cc1")
"inactive"
>>> observed_result("COc1ccc2c(c1)CCc1c(C(=O)N3CC4(C)CC3CC(C)(C)C4)noc1-2 (stereo not given)")
"inactive"

Turning now to a further molecule:
Prompt: Would you kindly share the measured outcome for N#Cc1cnn(Cc2ccc(Cl)cc2)c1N ?
Response: inactive

* * *

PROTOCOL TEXT: enhancers of VCAM-1 display on endothelial cells, imaging, high-content imaging, pooled HUVEC, TNFa stimulus (AID 457)
CONDITIONS: TNFa-induced VCAM-1 immunofluorescence imaging
Screen size: about 10,000 compounds; about 20 (0.2%) were called active. Only a sample is shown.
ATTRIBUTE MEASURED: outcome

Study these solved cases before continuing.
>>> observed_result("CSC1CCCCC1(O)CSc1nc2c(cc1C#N)CCCC2 (stereo unspecified)")
"inactive"
>>> observed_result("COc1ccc(Cl)cc1NC(=O)CCN1CCN(c2ccccc2C)CC1")
"inactive"
>>> observed_result("COc1ccccc1C(=O)NCC(=O)Nc1ccccc1")
"inactive"
>>> observed_result("Cc1noc(C)c1CSc1ccccc1C(=O)N1CCN(c2ccccc2)CC1")
"inactive"

Prompt: Would you kindly share the measured outcome for O=C(CN1C(=O)CC(c2ccco2)Sc2ccccc21)Nc1ccccc1F (stereo unspecified) ?
Response: inactive

Prompt: Next up: CCCCC(CC)Cn1c2nc3ccccc3nc2c2c(=N)oc(C)nc21 (stereo unspecified)
Response: inactive

Prompt: Next up: O=C(NCc1nc2ccccc2[nH]1)c1ccc(Cl)c(S(=O)(=O)N2CCCC2)c1
Response: inactive

Prompt: Next up: Cc1ccccc1NC(=O)CN1CCC(NC(=O)Nc2ccccc2)CC1
Response: inactive

Prompt: Next up: CS(=O)(=O)N(CC(=O)N1CCN(c2cccc(Cl)c2)CC1)C1CCCCC1
Response: inactive

Prompt: Next up: CCOC(=O)N1CCN(C(=O)c2csc3c2CCCCC3)CC1
Response: inactive

Prompt: Next up: O=C(NC1CC2CCC1C2)c1ccc(CN2CCOCC2)cc1 (stereo unspecified)
Response: inactive
